observationType: melting point

Examples with answers:
molecule: CCOP(=O)(OCC)c1ccc2nc(-c3ccc(F)cc3)cc(-c3ccc(C)cc3)c2c1 [7v]
melting point: 153 to 155 °C
//
molecule: CCOP(=O)(OCC)c1cccc2c(-c3ccccc3)cc(-c3ccc4ccccc4c3)nc12 [7e]
melting point: 135 to 137 °C
//
molecule: CCOP(=O)(OCC)c1ccc2nc(-c3ccc(F)cc3)cc(-c3ccc(F)cc3)c2c1 [7t]
melting point: 161 to 164 °C
//
molecule: Cc1ccc(-c2cc(-c3ccc(F)c(F)c3)nc3c(P(=O)(OC(C)C)OC(C)C)cccc23)cc1 [7q]
melting point: 140 to 142 °C
//
molecule: CC(C)OP(=O)(OC(C)C)c1cccc2c(-c3ccccc3)cc(-c3ccc(F)c(F)c3)nc12 [7m]
melting point: 127 to 129 °C

Could you now consider this next molecule?
Task: Look up melting point for this molecule: CCOP(=O)(OCC)c1ccc2nc(-c3ccc(F)c(F)c3)cc(-c3ccc(F)cc3)c2c1 [7u]
Output: 130 to 132 °C

----------
system: L. infantum promastigotes; test: In vitro iRFP-L. infantum promastigotes viability assay; type: cell-based; conditions: Leishmania infantum; 96 h exposure, EC50 ± SD
observationType: EC50 (µM)
Give just the number in µM; leave the unit off.

Examples with answers:
structureString: CCOP(=O)(OCC)c1cccc2c(-c3ccccc3)cc(-c3ccc(F)cc3)nc12
scaleUnit: µM
EC50: 7.63
--
structureString: CCOP(=O)(OCC)c1ccc2nc(-c3ccc(F)c(F)c3)cc(-c3ccc(F)cc3)c2c1
scaleUnit: µM
EC50: 7.07
--
structureString: CCOP(=O)(OCC)c1cccc2c(-c3ccccc3)cc(-c3ccccc3)nc12
scaleUnit: µM
EC50: 0.91
--
structureString: CCOP(=O)(OCC)c1cccc2c(-c3ccc(C)cc3)cc(-c3ccc(F)c(F)c3)nc12
scaleUnit: µM
EC50: 2.59
--
structureString: CCOP(=O)(OCC)c1ccc2nc(-c3ccc(F)c(F)c3)cc(-c3ccccc3)c2c1
scaleUnit: µM
EC50: 14.7
--
structureString: CC(C)OP(=O)(OC(C)C)c1cccc2c(-c3ccc(F)cc3)cc(-c3ccc(F)cc3)nc12
scaleUnit: µM
EC50: 4.86
--
structureString: CCOP(=O)(OCC)c1cccc2c(-c3ccc(C)cc3)cc(-c3ccc(F)cc3)nc12
scaleUnit: µM
EC50: 7.29
--
structureString: CC(C)OP(=O)(OC(C)C)c1cccc2c(-c3ccccc3)cc(-c3ccc(F)c(F)c3)nc12
scaleUnit: µM
EC50: 11.2
--
structureString: Cc1ccc(-c2cc(-c3ccc(F)c(F)c3)nc3c(P(=O)(OC(C)C)OC(C)C)cccc23)cc1
scaleUnit: µM
EC50: 7.46
--
structureString: CCOP(=O)(OCC)c1cccc2c(-c3ccccc3)cc(-c3ccc4ccccc4c3)nc12
scaleUnit: µM
EC50: 20.4

Task: Look up EC50 for this compound: "CCOP(=O)(OCC)c1cccc2c(-c3ccc(F)cc3)cc(-c3ccc(F)cc3)nc12"
Output: 8.43

Task: Look up EC50 for this compound: "CCOP(=O)(OCC)c1ccc2nc(-c3ccc(F)cc3)cc(-c3ccccc3)c2c1"
Output: 15.2

Task: Look up EC50 for this compound: "CCOP(=O)(OCC)c1ccc2nc(-c3ccc(F)cc3)cc(-c3ccc(C)cc3)c2c1"
Output: 7.02

Task: Look up EC50 for this compound: "CCOP(=O)(OCC)c1cccc2c(-c3ccccc3)cc(-c3ccccc3OC)nc12"
Output: 11.4

Task: Look up EC50 for this compound: "CCOP(=O)(OCC)c1cccc2c(-c3ccc(F)cc3)cc(-c3ccc(F)c(F)c3)nc12"
Output: 6.35

Task: Look up EC50 for this compound: "CCOP(=O)(OCC)c1cccc2c(-c3ccccc3)cc(-c3cccc4ccccc34)nc12"
Output: 20.6

Task: Look up EC50 for this compound: "CCOP(=O)(OCC)c1cccc2c(-c3ccc(F)cc3)cc(-c3ccccc3)nc12"
Output: 16.1

Task: Look up EC50 for this compound: "CC(C)OP(=O)(OC(C)C)c1cccc2c(-c3ccccc3)cc(-c3ccc(F)cc3)nc12"
Output: 9.57

----------
test system: L. infantum promastigotes; experiment: In vitro iRFP-L. infantum promastigotes viability assay; assay type: cell-based; settings: Leishmania infantum; 96 h exposure, EC50 ± SD
Please note: EC50 exactly at 20 µM is no. Only values below 20 µM get yes.

Record excerpt, results attached:
structureString: CCOP(=O)(OCC)c1cccc2c(-c3ccccc3)cc(-c3ccc(OC)cc3)nc12
subjectOfTest: L. infantum promastigotes
labelValue: yes
//
structureString: CCOP(=O)(OCC)c1ccc2nc(-c3ccc(F)cc3)cc(-c3ccc(F)cc3)c2c1
subjectOfTest: L. infantum promastigotes
labelValue: yes
//
structureString: Cc1ccc(-c2cc(-c3ccc(F)cc3)nc3c(P(=O)(OC(C)C)OC(C)C)cccc23)cc1
subjectOfTest: L. infantum promastigotes
labelValue: yes
//
structureString: CC(C)OP(=O)(OC(C)C)c1cccc2c(-c3ccc(F)cc3)cc(-c3ccc(F)c(F)c3)nc12
subjectOfTest: L. infantum promastigotes
labelValue: yes

Kindly consider the entry below.
Task: I'd appreciate it if you could check whether "CCOP(=O)(OCC)c1ccc2nc(-c3ccc(F)c(F)c3)cc(-c3ccc(C)cc3)c2c1" has EC50 smaller than 20 µM.
Output: no

----------
Reported pEC50 values follow for various compounds
test system: L. infantum amastigotes; test: Ex vivo murine splenic explant culture, intramacrophage amastigotes; format: cell-based; settings: Leishmania infantum, Hec50; intramacrophage amastigotes in splenic explants, 96 h, EC50 ± SD
// pEC50: -log10(molar conc.)

compound: Cc1ccc(-c2cc(-c3ccc(F)cc3)nc3c(P(=O)(OC(C)C)OC(C)C)cccc23)cc1 [7p]
subjectOfTest: L. infantum amastigotes
pEC50: 4.61

Task: Look up pEC50 for this compound: CCOP(=O)(OCC)c1cccc2c(-c3ccc(F)cc3)cc(-c3ccc(F)c(F)c3)nc12 [7i]
Output: 4.87

Task: Look up pEC50 for this compound: CC(C)OP(=O)(OC(C)C)c1cccc2c(-c3ccccc3)cc(-c3ccc(F)c(F)c3)nc12 [7m]
Output: 4.99

Task: Look up pEC50 for this compound: CCOP(=O)(OCC)c1cccc2c(-c3ccccc3)cc(-c3ccccc3OC)nc12 [7d]
Output: 4.71

----------
system: A549 (human lung adenocarcinoma cells); test: CCK-8 cytotoxicity assay, A549; assay type: cell-based; details: A549, 48 h, read-out: Cytotoxicity IC50 Lung A549
Reported pIC50 values follow for various compounds
// pIC50: -log10(molar conc.)

Examples with answers:
structureString: CCOP(=O)(OCC)c1ccc2nc(-c3ccc(F)c(F)c3)cc(-c3ccc(F)cc3)c2c1
subjectOfTest: A549 (human lung adenocarcinoma cells)
pIC50: 5.36

structureString: CCOP(=O)(OCC)c1ccc2nc(-c3ccc(F)c(F)c3)cc(-c3ccc(C)cc3)c2c1
subjectOfTest: A549 (human lung adenocarcinoma cells)
pIC50: 5.52

structureString: Cc1ccc(-c2cc(-c3ccc(F)cc3)nc3c(P(=O)(OC(C)C)OC(C)C)cccc23)cc1
subjectOfTest: A549 (human lung adenocarcinoma cells)
pIC50: 5.16

structureString: CC(C)OP(=O)(OC(C)C)c1cccc2c(-c3ccc(F)cc3)cc(-c3ccc(F)c(F)c3)nc12
subjectOfTest: A549 (human lung adenocarcinoma cells)
pIC50: 5.17

Task: Look up pIC50 for this compound: "CCOP(=O)(OCC)c1cccc2c(-c3ccc(F)cc3)cc(-c3ccc(F)c(F)c3)nc12"
Output: 5.33

Task: Look up pIC50 for this compound: "CCOP(=O)(OCC)c1cccc2c(-c3ccc(F)cc3)cc(-c3ccccc3)nc12"
Output: 5.64

Task: Look up pIC50 for this compound: "Cc1ccc(-c2cc(-c3ccc(F)c(F)c3)nc3c(P(=O)(OC(C)C)OC(C)C)cccc23)cc1"
Output: 5.08

Task: Look up pIC50 for this compound: "CCOP(=O)(OCC)c1cccc2c(-c3ccccc3)cc(-c3ccc(F)cc3)nc12"
Output: 5.67

Task: Look up pIC50 for this compound: "CC(C)OP(=O)(OC(C)C)c1cccc2c(-c3ccccc3)cc(-c3ccc(F)cc3)nc12"
Output: 5.30

----------
Reported melting point values follow for various compounds

structureString: CCOP(=O)(OCC)c1ccc2nc(-c3ccc(F)cc3)cc(-c3ccccc3)c2c1
observationType: melting point
result: 137 to 139 °C
//
structureString: CCOP(=O)(OCC)c1cccc2c(-c3ccccc3)cc(-c3ccc(OC)cc3)nc12
observationType: melting point
result: 120 to 122 °C

Could you now consider this next compound?
Task: Look up melting point for this compound: "CCOP(=O)(OCC)c1cccc2c(-c3ccc(C)cc3)cc(-c3ccc(F)c(F)c3)nc12"
Output: 133 to 135 °C
